system: panel of cancer cell lines; experiment: Cell viability (CellTiter-Glo) dose-response across cancer cell line panel; assay type: cell-based, human; settings: Homo sapiens, NCI-H727, NCI-H727;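 further: after 72 h compound incubation with CellTiter-Glo ATP readout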
reported.metric: EC50 (nM)
Your answer is read as nM, so omit the unit and give the number.

Please report EC50 for the following compound: CC(C)C[C@H](NC(=O)[C@H](Cc1ccccc1)NC(=O)c1cnccn1)B(O)O
27.4

----------
system: panel of cancer cell lines; test: Cell viability (CellTiter-Glo) dose-response across cancer cell line panel; format: cell-based, human; conditions: Homo sapiens, ESS-1, ESS-1;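 further: after 72 h compound incubation with CellTiter-Glo ATP readout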
reported.metric: pEC50
Formally, pEC50 is defined as -log10 of the concentration c, with c in mol/L.

Please report pEC50 for the following molecule: CC(C)C[C@H](NC(=O)[C@H](Cc1ccccc1)NC(=O)c1cnccn1)B(O)O
8.06

----------
test system: panel of cancer cell lines; test: Cell viability (CellTiter-Glo) dose-response across cancer cell line panel; assay type: cell-based, human; settings: Homo sapiens, RCM-1, RCM-1 cells;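 further: after 72 h compound incubation with CellTiter-Glo ATP readout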
reported.metric: pEC50
Formally, pEC50 is defined as -log10 of the concentration c, with c in mol/L.

Please report pEC50 for the following compound: COCc1ccccc1NCc1ccc([C@@H]2[C@H](O)CCCc3cncn32)c(-c2ccccc2Cl)c1
4.87

----------
system: panel of cancer cell lines; assay: Cell viability (CellTiter-Glo) dose-response across cancer cell line panel; format: cell-based, human; conditions: Homo sapiens, SU-DHL-5, SU-DHL-5 cells;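 further: after 72 h compound incubation with CellTiter-Glo ATP readout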
reported.metric: pEC50
Formally, pEC50 is defined as -log10 of the concentration c, with c in mol/L.

Please report pEC50 for the following compound: COCc1ccccc1NCc1ccc([C@@H]2[C@H](O)CCCc3cncn32)c(-c2ccccc2Cl)c1 [CSN5i-2e]
5.36

----------
Task for the reader: assign each of the following molecules its reported pEC50.
tested on: panel of cancer cell lines; test: Cell viability (CellTiter-Glo) dose-response across cancer cell line panel; format: cell-based, human; conditions: Homo sapiens, RPMI-7951, RPMI-7951;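 further: after 72 h compound incubation with CellTiter-Glo ATP readout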
Formally, pEC50 is defined as -log10 of the concentration c, with c in mol/L.

Please report pEC50 for the following molecule: NS(=O)(=O)OC[C@@H]1C[C@@H](n2ccc3c(N[C@H]4CCc5ccccc54)ncnc32)C[C@@H]1O [MLN4924]
5.99

Please report pEC50 for the following molecule: COCc1ccccc1NCc1ccc([C@H]2[C@@H](O)CCCc3cncn32)c(-c2ccccc2Cl)c1 [CSN5i-2]
4.80

----------
tested on: panel of cancer cell lines; assay: Cell viability (CellTiter-Glo) dose-response across cancer cell line panel; assay type: cell-based, human; settings: Homo sapiens, SKM-1, SKM-1 cells;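 further: after 72 h compound incubation with CellTiter-Glo ATP readout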
reported.metric: EC50 (µM)
Your answer is read as µM, so omit the unit and give the number.

Please report EC50 for the following compound: COCc1ccccc1NCc1ccc([C@@H]2[C@H](O)CCCc3cncn32)c(-c2ccccc2Cl)c1
13.6

----------
Task for the reader: assign each of the following compounds its reported EC50.
tested on: panel of cancer cell lines; assay: Cell viability (CellTiter-Glo) dose-response across cancer cell line panel; type: cell-based, human; conditions: Homo sapiens, SK-HEP1, SK-HEP-1;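 further: after 72 h compound incubation with CellTiter-Glo ATP readout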
Write your answer as a measured quantity: the number, then the unit.

Please report EC50 for the following compound: NS(=O)(=O)OC[C@@H]1C[C@@H](n2ccc3c(N[C@H]4CCc5ccccc54)ncnc32)C[C@@H]1O [MLN4924]
384 nM

Please report EC50 for the following compound: COCc1ccccc1NCc1ccc([C@H]2[C@@H](O)CCCc3cncn32)c(-c2ccccc2Cl)c1 [CSN5i-2]
979 nM
